Target: Human immunodeficiency virus type 1 protease (Human immunodeficiency virus 1, UniProt Q72874, A71V/I84V/V82T)
Experiment: Inhibition of HIV1 recombinant protease A71V/V82T/I84V mutant expressed in Escherichia coli by spectrophotometric assay
endpoint label: pKi
Keep in mind that pKi stands for -log10 of concentration in molar terms.

Ask: Please report pKi for the following compound: `COC(=O)N[C@H](C(=O)N[C@@H](Cc1ccccc1)[C@@H](O)CN(Cc1ccc(-c2ccccn2)cc1)NC(=O)[C@@H](NC(=O)OC)C(C)(C)C)C(C)(C)C`
Reply: 9.64

----------
Molecular target: Human immunodeficiency virus type 1 protease (Human immunodeficiency virus 1, UniProt Q72874, A71V/I54V/I84V/L10I/L24I/L33F/L63P/M46L/V82A)
Sequence (Q72874 entry or part of it A71V/I54V/I84V/L10I/L24I/L33F/L63P/M46L/V82A): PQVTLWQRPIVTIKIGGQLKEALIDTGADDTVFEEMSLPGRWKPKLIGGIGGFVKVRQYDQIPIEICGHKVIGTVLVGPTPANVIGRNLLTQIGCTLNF
Experiment: Inhibition of HIV1 recombinant protease L10I/L24I/L33F/M46L/I54V/L63P/A71V/V82A/I84V mutant expressed in Escherichia coli by spectrophotometric assay
endpoint label: Ki (nM)
Dear colleague, please return just the value in nM, with no unit written.

1) CC(C)CN(C[C@@H](O)[C@H](Cc1ccccc1)NC(=O)O[C@H]1CCOC1)S(=O)(=O)c1ccc(N)cc1	4.1

Here's the next entry for you.
Ask: Name the recorded Ki of the item `COC(=O)N[C@H](C(=O)N[C@@H](Cc1ccccc1)[C@@H](O)CN(Cc1ccc(-c2ccccn2)cc1)NC(=O)[C@@H](NC(=O)OC)C(C)(C)C)C(C)(C)C` in your answer.
Reply: 1.2

All values here come from ChEMBL document CHEMBL1155806.
